# Assay type: physicochemical
# Setup Conditions: stored at room temperature (21-25° C.), day 11
Observable: Stability in Powder Concentrate (content by LCMSMS) (mg/g powder)
Answers are plain numbers, in mg/g powder.

Each molecule below has a reported value. Please supply its Stability in Powder Concentrate (content by LCMSMS).
1. CCCc1cc(O)c2c(c1)OC(C)(C)[C@@H]1CCC(C)=C[C@@H]21 [THCV, delta-9-tetrahydrocannabivarin]
2. CCCCCc1cc2c(c(O)c1C(=O)O)[C@@H]1C=C(C)CC[C@H]1C(C)(C)O2 [D9 THCA, delta-9-tetrahydrocannabinolic acid]
3. Cc1c(C)c2c(c(C)c1OC(=O)CCC(=O)O)CC[C@@](C)(CCC[C@H](C)CCC[C@H](C)CCCC(C)C)O2 [α-Tocopheryl succinate]

Reply |
[0.708, 0.145, 1.89]
